The measured values listed here are drawn from paper PMC12587545.

# Test system: P. aeruginosa
# procedure_text: Checkerboard assay (antibiotic potentiation)
# Type: cell-based, Pseudomonas aeruginosa
# settings: P. aeruginosa 259-96916; antibiotic MIC with 8 µg/mL (5 µM) compound 1
MICantibiotic + compound for assorted compounds
Hi! Could you send only the number? It should be in µg/mL, unit omitted.

query: Report measured MICantibiotic + compound; entry is C[C@@H]1CN2c3c(cc4c(N5C(=O)OC[C@@H]5C)noc4c3F)CC3(C(=O)NC(=O)NC3=O)[C@H]2[C@H](C)O1
result: 0.125

----------
# Tested on: P. aeruginosa
# procedure_text: Checkerboard assay (antibiotic potentiation)
# Type: cell-based, Pseudomonas aeruginosa
# settings: P. aeruginosa 264-105354; antibiotic alone
endpoint_name: MICantibiotic (µg/mL)
Hi! Could you send only the number? It should be in µg/mL, unit omitted.

CO[C@H]1/C=C/O[C@@]2(C)Oc3c(C)c(O)c4c(O)c(c(/C=N/N5CCN(C)CC5)c(O)c4c3C2=O)NC(=O)/C(C)=C\C=C\[C@H](C)[C@H](O)[C@@H](C)[C@@H](O)[C@@H](C)[C@H](OC(C)=O)[C@@H]1C	32
CC(C)(O/N=C(\C(=O)N[C@@H]1C(=O)N2C(C(=O)[O-])=C(C[n+]3ccccc3)CS[C@H]12)c1csc(N)n1)C(=O)O	128

Now turn to the next compound.
query: Report measured MICantibiotic; entry is C[C@H]1COc2c(N3CCN(C)CC3)c(F)cc3c(=O)c(C(=O)O)cn1c23
result: 64

----------
# Test system: HK-2
# Assay type: cell-based, human
# settings: 48 h
Positions of bridges follow the written chain, without caps; N, C: chain ends. Non-standard residues stand in square brackets, D forms with d. Residues, ends and D or L forms follow the SMILES beside them. *: point of attachment. Agp = N=C(N)NC[C@H](N)C(=O)O; Octanoyl = CCCCCCCC(=O)*; Dab = NCC[C@H](N)C(=O)O; Dap = NC[C@H](N)C(=O)O
Threshold 200 µM: CC50 in HK-2 strictly smaller gives T, otherwise F.

Answered examples (4):
CCCCCCCC(=O)N[C@@H](CNC(=N)N)C(=O)N[C@H](C(=O)N[C@@H](CNC(=N)N)C(=O)N[C@H]1CCNC(=O)[C@H]([C@@H](C)O)NC(=O)[C@H](CNC(=N)N)NC(=O)[C@H](CNC(=N)N)NC(=O)[C@H](CC(C)C)NC(=O)[C@@H](Cc2ccccc2)NC(=O)[C@H](CNC(=N)N)NC1=O)[C@@H](C)O [Compound 2] (Octanoyl-[Agp]T[Agp][Dab][Agp][dF]L[Agp][Agp]T; lactam 4-C)	T
CCCCCCCC(=O)N[C@@H](CCN)C(=O)N[C@H](C(=O)N[C@@H](CCN)C(=O)N[C@H]1CCNC(=O)[C@H]([C@@H](C)O)NC(=O)[C@H](CCN)NC(=O)[C@H](CCN)NC(=O)[C@H]([C@@H](C)O)NC(=O)[C@@H]([C@H](C)O)NC(=O)[C@H](CCN)NC1=O)[C@@H](C)O [Compound F230] (Octanoyl-[Dab]T[Dab][Dab][Dab][dT]T[Dab][Dab]T; lactam 4-C)	F
CCCCCCCC(=O)N[C@@H](CN)C(=O)N[C@H](C(=O)N[C@@H](CC(=O)O)C(=O)N[C@H]1CCNC(=O)[C@H]([C@@H](C)O)NC(=O)[C@H](CN)NC(=O)[C@H](CN)NC(=O)[C@H](CC(C)C)NC(=O)[C@@H](Cc2ccccc2)NC(=O)[C@H](CN)NC1=O)[C@@H](C)O [Compound 3] (Octanoyl-[Dap]TD[Dab][Dap][dF]L[Dap][Dap]T; lactam 4-C)	F
CCCCCCCC(=O)N[C@@H](CCN)C(=O)N[C@H](C(=O)N[C@@H](CC(=O)O)C(=O)N[C@H]1CCNC(=O)[C@H]([C@@H](C)O)NC(=O)[C@H](CCN)NC(=O)[C@H](CCN)NC(=O)[C@H](CC(C)C)NC(=O)[C@@H](Cc2ccccc2)NC(=O)[C@H](CCN)NC1=O)[C@@H](C)O [Compound 4] (Octanoyl-[Dab]TD[Dab][Dab][dF]L[Dab][Dab]T; lactam 4-C)	F

--- query ---
query: Threshold test, CC50 in HK-2 < 200 µM: CCCCCCCC(=O)N[C@@H](CN)C(=O)N[C@H](C(=O)N[C@@H](CN)C(=O)N[C@H]1CCNC(=O)[C@H]([C@@H](C)O)NC(=O)[C@H](CN)NC(=O)[C@H](CN)NC(=O)[C@H](CC(C)C)NC(=O)[C@@H](Cc2ccccc2)NC(=O)[C@H](CN)NC1=O)[C@@H](C)O [Compound 1] (Octanoyl-[Dap]T[Dap][Dab][Dap][dF]L[Dap][Dap]T; lactam 4-C)
result: F
